Would you kindly list melting point for each of these compounds?

Asked: GET /values?readout=melting point&item= O=C(NC1CCCC1)c1ccc(Cl)nn1
Given back: 139 to 141 °C

Asked: Another compound to check: N#Cc1cccc(NC(=O)OCC(F)(F)F)c1
Given back: 133 to 135 °C

Asked: Another compound to check: CCOC(OCC)c1cc(-c2cccc(F)c2)[nH]n1
Given back: 82 to 84 °C

Asked: Another compound to check: O=C(O)c1ccccc1OCc1ccc(F)cc1
Given back: 80 to 84 °C

Asked: Another compound to check: Cc1cccc2c(Cl)ncnc12
Given back: 131 to 133 °C

Asked: Another compound to check: OC1CC2CCCC(C1)N2Cc1ccccc1 (centres undefined)
Given back: 57 to 59 °C

Asked: Another compound to check: Cc1ccc(C(=O)N=[N+]=[N-])o1
Given back: 33 to 35 °C

Asked: Another compound to check: O=Cc1cn(Cc2ccccc2)nc1-c1ccccc1
Given back: 85 to 87 °C

Asked: Another compound to check: c1n[nH]cc1C1CCCCN1 (centres undefined)
Given back: 114 to 116 °C

Asked: Another compound to check: Clc1cn2ccccc2n1
Given back: 72 to 74 °C

Asked: Another compound to check: Oc1ncnc2c(F)cc(Br)cc12
Given back: 299 to 301 °C

Asked: Another compound to check: COc1ccnc(N2CCNCC2)c1
Given back: 36 to 38 °C

Asked: Another compound to check: CCc1nnsc1C(=O)NC1CCCCC1
Given back: 80 to 82 °C

Asked: Another compound to check: COC(=O)c1noc(C)c1C(=O)c1ccccc1
Given back: 90 to 92 °C

Asked: Another compound to check: O=c1[nH]nc(-c2cccs2)o1
Given back: 116 to 118 °C

Asked: Another compound to check: O=C(CCl)Nc1nc(-c2ccc(F)cc2)cs1
Given back: 142 to 144 °C

Asked: Another compound to check: Cc1cccc(-c2nnc(C(C)Cl)o2)c1 (centres undefined)
Given back: < 17 °C

Asked: Another compound to check: CN1CCN(c2cc(CN)ccn2)CC1
Given back: 72 to 74 °C

Asked: Another compound to check: Cc1cc(C(=O)O)c(C)n1-c1ccccc1
Given back: 213 to 215 °C

Asked: Another compound to check: Nc1ccc(N2CCOCC2)cc1C(=O)O
Given back: 235 to 237 °C

Asked: Another compound to check: Nc1ccc(C=CC(=O)O)cn1
Given back: 189 to 191 °C

Asked: Another compound to check: CC(=O)c1ccc(F)cc1N(C)C
Given back: 57 to 59 °C

Asked: Another compound to check: Nc1cncc(Br)c1Cl
Given back: 96 to 98 °C

Asked: Another compound to check: Cc1cc(F)ccc1CO
Given back: 44 to 46 °C

Asked: Another compound to check: Cc1cc(S(N)(=O)=O)cc(C(=O)O)c1C
Given back: 261 to 263 °C

Asked: Another compound to check: COC(=O)c1cccc(N2CC(=O)NC2=O)c1
Given back: 189 to 191 °C

Asked: Another compound to check: NNC(=O)CNc1cccc(C(F)(F)F)c1
Given back: 80 to 82 °C

Asked: Another compound to check: CC(C)c1nc(C=O)c2ccccn12
Given back: 95 to 97 °C

Asked: Another compound to check: NS(=O)(=O)Cc1cccc(C(=O)O)c1
Given back: 234 to 236 °C
